biological target: HGFR (Homo sapiens); construct: purchased Upstate 14-526; assay: HGFR continuous-coupled spectrophotometric assay; format: biochemical; conditions: Table 6; percent c-MET inhibition at 1 μM; read-out: % inhibition
Rule: TRUE for inhibition at 1 µM not less than 20%, FALSE for anything less.

compound	group
Nc1ncc(C(=O)N2CCn3c(CO)nnc3C2)cc1OCc1c(Cl)cccc1Cl	TRUE
Nc1ncc(C(=O)N2CCN(CC(=O)N3CCCCC3)CC2)cc1OCc1c(Cl)cccc1Cl	TRUE
Nc1ncc(C(=O)N2CCCC(O)C2)cc1OCc1c(Cl)cccc1Cl (centres unmarked)	TRUE
Cc1cc(CCC2COC3(CCN(C(=O)c4cnc(N)c(OCc5c(Cl)cccc5Cl)c4)CC3)C2)no1 (centres unmarked)	FALSE

We next turn to a different compound, shown below.
Determine whether measured inhibition at 1 µM meets or exceeds 20% for CN(C)C(CNC(=O)c1cnc(N)c(OCc2c(Cl)cccc2Cl)c1)c1cccnc1 (centres unmarked)
FALSE

====

target: HGFR (Homo sapiens, UniProt P08581); construct: purchased Upstate 14-526; experiment: HGFR continuous-coupled spectrophotometric assay; format: biochemical
Sequence (P08581 974-1390 limits assumed): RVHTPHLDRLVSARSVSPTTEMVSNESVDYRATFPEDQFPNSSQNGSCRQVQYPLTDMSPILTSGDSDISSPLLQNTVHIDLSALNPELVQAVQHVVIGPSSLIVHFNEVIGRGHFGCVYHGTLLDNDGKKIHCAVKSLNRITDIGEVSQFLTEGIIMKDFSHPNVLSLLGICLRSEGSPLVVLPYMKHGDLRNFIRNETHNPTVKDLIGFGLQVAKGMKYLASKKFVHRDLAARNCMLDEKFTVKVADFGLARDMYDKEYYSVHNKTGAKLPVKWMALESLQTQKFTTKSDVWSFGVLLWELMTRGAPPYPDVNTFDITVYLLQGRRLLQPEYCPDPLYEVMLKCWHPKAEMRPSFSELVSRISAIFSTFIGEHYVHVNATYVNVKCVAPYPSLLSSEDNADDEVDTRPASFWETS
measure: % inhibition

structureSmilesString	studySystem	endpointResult
Nc1ncc(-c2ccc(C(=O)N3CCC(N4CCCC4)CC3)cc2)cc1OCc1ncccn1	HGFR (Homo sapiens, UniProt P08581)	% inhibition = 9
Nc1ncc(-c2ccc(C(=O)N3CCC(N4CCCC4)CC3)cc2)cc1OCc1cccc2cccnc12	HGFR (Homo sapiens, UniProt P08581)	% inhibition = 22
Nc1ncc(-c2ccc(C(=O)N3CCC(N4CCCC4)CC3)cc2)cc1OCc1ccccc1-c1ccccc1	HGFR (Homo sapiens, UniProt P08581)	% inhibition = 22
CN(C)CCNC(=O)c1ccc(COc2cc(-c3ccc(C(=O)N4CCC(N5CCCC5)CC4)cc3)cnc2N)cc1	HGFR (Homo sapiens, UniProt P08581)	% inhibition = 9

====

biological target: HGFR (Homo sapiens, UniProt P08581); construct: purchased Upstate 14-526; assay: HGFR continuous-coupled spectrophotometric assay; assay type: biochemical
measure: % inhibition

compound	measure	endpointResult
CC(Oc1nc(-c2ccc(C(=O)N3CCC[C@H]3CN3CCCC3)cc2)cnc1N)c1c(Cl)cccc1Cl (some centres unmarked)	% inhibition	% inhibition = 14
Cc1cc(C)cc(COc2cc(-c3ccc(C(=O)N4CCC(N5CCCC5)CC4)cc3)cnc2N)c1	% inhibition	% inhibition = 14

====

inhibition at 1 µM for assorted compounds
biological target: HGFR (Homo sapiens, UniProt P08581); construct: purchased Upstate 14-526; experiment: HGFR continuous-coupled spectrophotometric assay; assay type: biochemical; conditions: Table 6; percent c-MET inhibition at 1 μM; read-out: % inhibition
Write it as a number; the unit % goes unstated.

Worked examples follow.
compound	inhibition at 1 µM (%)
Nc1ncc(C(=O)N2CCN(CC(=O)Nc3ccccn3)CC2)cc1OCc1c(Cl)cccc1Cl	56
Nc1ncc(C(=O)NCCN2CCN(Cc3ccccc3)CC2)cc1OCc1c(Cl)cccc1Cl	36
Nc1ncc(C(=O)NCCc2cccc(O)c2)cc1OCc1c(Cl)cccc1Cl	17
Nc1ncc(C(=O)N2CCCC(O)(COc3cccc(F)c3)C2)cc1OCc1c(Cl)cccc1Cl (centres unmarked)	36
Nc1ncc(C(=O)NCCc2ccc(O)cc2)cc1OCc1c(Cl)cccc1Cl	34
COc1ccccc1CNC(=O)c1cnc(N)c(OCc2c(Cl)cccc2Cl)c1	32
CN(C)C(=O)c1cnc(N)c(OCc2c(Cl)cccc2Cl)c1	10
Cc1nc(CCNC(=O)c2cnc(N)c(OCc3c(Cl)cccc3Cl)c2)c[nH]1	23

Fill blank: measured inhibition at 1 µM of the compound `Nc1ncc(C(=O)NCc2ccc(O)cc2)cc1OCc1c(Cl)cccc1Cl` is ____.
37

Which inhibition at 1 µM value is on record for `CN(CCS(C)(=O)=O)C(=O)c1cnc(N)c(OCc2c(Cl)cccc2Cl)c1` ?
26

GET /values?readout=inhibition at 1 µM&item= CC(CCCC(C)(C)O)NC(=O)c1cnc(N)c(OCc2c(Cl)cccc2Cl)c1 (centres unmarked)
35

What value of inhibition at 1 µM has been recorded for this entry: `Nc1ncc(C(=O)N2CCN(CC(=O)N3CCOCC3)CC2)cc1OCc1c(Cl)cccc1Cl`
31

Any idea what its inhibition at 1 µM is? The compound is CC(O)CNC(=O)c1cnc(N)c(OCc2c(Cl)cccc2Cl)c1 (centres unmarked)
49

Quick check: inhibition at 1 µM of `Nc1ncc(C(=O)N2CCS(=O)(=O)CC2)cc1OCc1c(Cl)cccc1Cl` ?
10

inhibition at 1 µM for Nc1ncc(C(=O)N2CCC(COc3cccc4cccnc34)C2)cc1OCc1c(Cl)cccc1Cl (centres unmarked) ?
35

These measurements were taken from patent US8106197B2.
